- target-system: T1, full length human DLL4 (human, UniProt Q9NR61 27-685)
- T1 construct: whole, on cells; also called native DLL4 expressed in HEK293 cells
- T1 sequence (Q9NR61 27-685): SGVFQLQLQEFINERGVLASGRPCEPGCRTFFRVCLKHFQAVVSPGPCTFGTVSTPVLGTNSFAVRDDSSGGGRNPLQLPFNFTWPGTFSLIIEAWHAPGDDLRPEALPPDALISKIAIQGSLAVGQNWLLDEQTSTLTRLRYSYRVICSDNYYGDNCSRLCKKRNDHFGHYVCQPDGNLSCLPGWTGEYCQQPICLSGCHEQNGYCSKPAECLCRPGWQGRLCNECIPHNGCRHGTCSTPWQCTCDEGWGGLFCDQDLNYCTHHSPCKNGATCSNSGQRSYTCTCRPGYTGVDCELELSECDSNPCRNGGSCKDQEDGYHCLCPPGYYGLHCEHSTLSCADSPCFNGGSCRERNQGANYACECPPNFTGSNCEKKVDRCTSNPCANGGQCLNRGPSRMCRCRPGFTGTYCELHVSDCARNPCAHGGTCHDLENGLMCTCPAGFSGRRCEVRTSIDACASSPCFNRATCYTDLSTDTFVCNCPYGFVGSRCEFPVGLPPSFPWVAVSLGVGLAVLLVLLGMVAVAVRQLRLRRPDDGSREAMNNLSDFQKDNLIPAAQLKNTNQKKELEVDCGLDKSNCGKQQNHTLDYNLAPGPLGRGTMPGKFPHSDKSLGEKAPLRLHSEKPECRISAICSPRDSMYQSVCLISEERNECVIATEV
- procedure-text: FACS binding, HEK293 cells with human DLL4
Measured EC50, listed per entry for reference.
experimental-readout: EC50 (µg/mL)

- 9G8 IgG2 VH L38W/VL C33S (antibody, V domains shown, IgG2) VH: QLQLQESGPGLVKPSETLSLSCTVSGGSISSSSSYWGWIRQPPGKGLEWIGSIYYSGSTYYSPSLKSRVSISVDTSKNQFSLKLSSVTAADTAVYFCARQGYGGHPDVFDIWGQGTMVTVSS VL: SSELTQSPSVSVSPGQTARITCSGDKLGDVYVSWYQQKTGQSPVLVIYEDTKRPSGIPERFSGSNSGNTATLTISGTQVMDEADYYCQAWDSTTAVIFGGGTKLTVL: 0.051
- 2H10 IgG2 VH wt/VL C33S (antibody, V domains shown, IgG2) VH: QVQLVESGGGVVQPGRSLRLSCAASGFTFSRHGMHWVRQAPGKGLEWVAVVWFDGSNIYYADSVKGRFTISRDNSKNTLYLQMNSLRAEDTAMYYCARDSRIAAADYWGQGTLVTVSS VL: SYELTQPPSVSVSPGQTVSITCSGDKLGDKYVSWYQQKPGQSPVLVIYQESKRPSGIPERFSGSSSGNTATLTISGTQAMDEADYYCQTWDSSLVVFGGGTKLTVL: 0.031
- 9G8 IgG2 VH wt/VL C33S (antibody, V domains shown, IgG2) VH: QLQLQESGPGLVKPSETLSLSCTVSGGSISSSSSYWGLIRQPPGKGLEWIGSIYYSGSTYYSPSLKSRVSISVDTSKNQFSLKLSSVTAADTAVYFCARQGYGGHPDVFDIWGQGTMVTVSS VL: SSELTQSPSVSVSPGQTARITCSGDKLGDVYVSWYQQKTGQSPVLVIYEDTKRPSGIPERFSGSNSGNTATLTISGTQVMDEADYYCQAWDSTTAVIFGGGTKLTVL: 0.067
